Every entry's value here was drawn from PubChem BioAssay (NCI).

Test system: NCI/ADR-RES ovarian
Experiment: NCI-60 one-dose screen, 48 h
Conditions: 10 µM unless noted
This is part of a sample that, as a whole, favours compounds with a hit. Of some 83,000 tested, about 20% had one in any assay. Active and inactive are the calls of the source. How the source made its calls: active means growth percent below 10; inactive means the rest.
Can you answer with just one of these options? YES = active, NO = inactive

As a guide, the following entries are already answered.
[
  {
    "compound": "O=S(=O)(NCCCNc1nccc(-n2ccc3cccnc32)n1)c1ccc(Br)cc1",
    "class-assignment": "NO"
  },
  {
    "compound": "CN(C)CCN1C(=O)c2ccc3c4c(ccc(c24)C1=O)C(=O)N(CCN=C=S)C3=O",
    "class-assignment": "YES"
  },
  {
    "compound": "C1=Cc2ccccc2N(c2nnc(-c3ccccc3)o2)c2ccccc21",
    "class-assignment": "NO"
  },
  {
    "compound": "COc1ccc(-c2nc(N3CCCC3=O)sc2Br)cc1OC",
    "class-assignment": "NO"
  },
  {
    "compound": "Nc1nnc(-c2ccc3ccccc3c2O)o1",
    "class-assignment": "NO"
  }
]

Now take the following compound into account.
Request: Which result was noted for this compound in the test: O=c1[nH]c2ccc(Br)cc2c2c1C(c1ccc(Cl)cc1)c1c(ncn3nc(-c4ccco4)nc13)O2 (stereo unspecified)
Response: NO
